target-or-test-system: rat NMBR (Rattus norvegicus, UniProt P24053)
Sequence (P24053 1-390): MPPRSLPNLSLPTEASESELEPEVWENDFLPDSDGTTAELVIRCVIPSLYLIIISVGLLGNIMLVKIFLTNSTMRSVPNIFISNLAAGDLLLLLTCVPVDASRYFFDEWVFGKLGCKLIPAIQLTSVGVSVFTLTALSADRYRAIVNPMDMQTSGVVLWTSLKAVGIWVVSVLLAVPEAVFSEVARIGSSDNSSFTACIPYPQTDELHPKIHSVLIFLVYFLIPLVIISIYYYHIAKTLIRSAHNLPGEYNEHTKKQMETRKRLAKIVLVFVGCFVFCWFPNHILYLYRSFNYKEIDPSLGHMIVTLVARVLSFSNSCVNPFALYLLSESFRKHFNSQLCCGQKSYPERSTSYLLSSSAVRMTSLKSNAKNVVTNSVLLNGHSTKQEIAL
protocol-summary: [3H]Inositol phosphate generation, rNMBR/BALB cells
Format: cell-based
pEC50: −log10 of the molar value.
readout-label: pEC50

{"query-smiles": "O[C@@](Cc1nc(CC2(C(F)(F)F)CC2)c[nH]1)(c1ccc(-n2cccn2)cc1)C(F)(F)F", "target-or-test-system": "rat NMBR (Rattus norvegicus, UniProt P24053)", "readout-label": "pEC50", "reported-result": "< 5.52"}

---

target-or-test-system: rat GRPR (Rattus norvegicus, UniProt P52500)
Sequence (P52500 whole entry): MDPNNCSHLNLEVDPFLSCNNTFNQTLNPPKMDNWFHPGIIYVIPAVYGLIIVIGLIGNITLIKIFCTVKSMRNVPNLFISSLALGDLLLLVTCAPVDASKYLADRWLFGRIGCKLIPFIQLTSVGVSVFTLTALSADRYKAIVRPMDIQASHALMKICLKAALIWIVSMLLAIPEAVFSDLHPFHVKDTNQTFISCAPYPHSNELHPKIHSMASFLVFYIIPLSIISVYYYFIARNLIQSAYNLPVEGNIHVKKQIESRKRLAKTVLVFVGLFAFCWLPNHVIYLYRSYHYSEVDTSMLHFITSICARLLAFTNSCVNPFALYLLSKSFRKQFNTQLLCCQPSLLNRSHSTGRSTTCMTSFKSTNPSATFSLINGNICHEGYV
protocol-summary: [3H]Inositol phosphate generation, rGRPR/AR42J cells
Format: cell-based
test-settings: read-out: EC50 Rat GRPR rGRPR/AR42J; [3H]IP production, 60 min, 37°C
pEC50: −log10 of the molar value.
readout-label: pEC50

{"compound": "CC(C)COc1cccc(CC(=O)N2CCNc3nc(C(F)(F)F)ccc3[C@H]2CC(=O)O)c1 [9G]", "target-or-test-system": "rat GRPR (Rattus norvegicus, UniProt P52500)", "readout-label": "pEC50", "reported-result": "< 5.52"}
{"compound": "Cc1ccc(Oc2cccc(CC(=O)N3CCNc4nc(C(F)(F)F)ccc4[C@H]3CC(=O)O)c2)cn1 [9F]", "target-or-test-system": "rat GRPR (Rattus norvegicus, UniProt P52500)", "readout-label": "pEC50", "reported-result": "< 5.52"}

---

target-or-test-system: mouse NMBR (Mus musculus, UniProt O54799)
Sequence (O54799 whole entry): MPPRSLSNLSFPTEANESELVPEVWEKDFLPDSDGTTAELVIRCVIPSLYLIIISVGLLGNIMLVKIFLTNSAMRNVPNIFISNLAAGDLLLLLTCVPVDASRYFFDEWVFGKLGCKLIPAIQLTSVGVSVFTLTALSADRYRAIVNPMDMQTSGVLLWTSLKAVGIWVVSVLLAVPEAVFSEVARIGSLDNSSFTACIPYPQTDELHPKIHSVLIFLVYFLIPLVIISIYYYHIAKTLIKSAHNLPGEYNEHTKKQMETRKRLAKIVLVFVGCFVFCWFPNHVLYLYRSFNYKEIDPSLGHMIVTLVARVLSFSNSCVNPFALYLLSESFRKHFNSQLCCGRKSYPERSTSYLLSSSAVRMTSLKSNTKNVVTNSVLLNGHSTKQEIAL
protocol-summary: [3H]Inositol phosphate generation, mNMBR/BALB cells
Format: cell-based
pEC50: −log10 of the molar value.

{"molecule": "O[C@@](Cc1nc(CC2(C(F)(F)F)CC2)c[nH]1)(c1ccc(-n2cccn2)cc1)C(F)(F)F [MK-5046]", "pEC50": "< 5.52"}

---

target-or-test-system: UniProtKB P52500
protocol-summary: [3H]Inositol phosphate generation, rGRPR/AR42J cells
Format: cell-based
readout-label: EC50

{"query-smiles": "O[C@@](Cc1nc(CC2(C(F)(F)F)CC2)c[nH]1)(c1ccc(-n2cccn2)cc1)C(F)(F)F", "reported-result": "> 3 µM"}

---

target-or-test-system: human NMBR (Homo sapiens)
Sequence (P28336 whole entry): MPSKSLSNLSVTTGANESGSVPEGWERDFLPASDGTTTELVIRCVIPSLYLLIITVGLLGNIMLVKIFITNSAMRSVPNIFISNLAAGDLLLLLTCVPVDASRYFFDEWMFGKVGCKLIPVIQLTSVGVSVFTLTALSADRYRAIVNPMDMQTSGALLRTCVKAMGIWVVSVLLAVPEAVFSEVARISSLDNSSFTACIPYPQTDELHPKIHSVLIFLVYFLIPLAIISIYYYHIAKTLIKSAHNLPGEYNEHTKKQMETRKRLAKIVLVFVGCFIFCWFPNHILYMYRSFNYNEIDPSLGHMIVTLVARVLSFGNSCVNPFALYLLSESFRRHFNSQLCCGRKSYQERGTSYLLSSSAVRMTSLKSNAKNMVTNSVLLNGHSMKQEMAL
protocol-summary: [3H]Inositol phosphate generation, hNMBR/BALB cells
Type: cell-based
readout-label: EC50

{"query-smiles": "O[C@@](Cc1nc(CC2(C(F)(F)F)CC2)c[nH]1)(c1ccc(-n2cccn2)cc1)C(F)(F)F", "reported-result": "> 3 µM"}
